- Tested on: KM12 colon
- experiment: NCI-60 one-dose screen, 48 h (100 = growth as untreated, 0 = no growth, -100 = all killed)
- reported.conditions: 10 µM unless noted
This is part of a sample that, as a whole, favours compounds with a hit. Of some 83,000 tested, about 20% had one in any assay. Active and inactive are the calls of the source. How the source made its calls: active means growth percent below 10; inactive means the rest.
outcome.measure: growth

Examples with their reported growth follow.
CCOC(=O)c1c(NC(=O)c2cccc(C(F)(F)F)c2)sc2cc(O)ccc12
95.5% (inactive)
CS(=O)(=O)c1ccc(-c2nc3ccccn3c2-c2nc3ccc([N+](=O)[O-])cc3[nH]2)cc1
93.8% (inactive)
Cc1cc2nc3c4cc(Cl)ccc4n(CC(=O)NCCN(C)C)c3nc2cc1C
86.2% (inactive)
Fc1ccc(-c2cc3nc(C(Cl)Cl)nc(-c4ccccc4)n3n2)cc1
-37.7% (active)
CC(=O)Oc1ccccc1C(=O)Nc1ccc(C(=O)/C=C/c2cccs2)cc1
102% (inactive)
Nc1c(C(=O)c2ccc(Br)cc2)oc2nc(-c3cnccn3)cc(-c3cccs3)c12
99.8% (inactive)

Requested read-out: growth. Entry: "CSc1ccc2c(c1)N(C(=O)/C(C#N)=C/c1c[nH]c3ccccc13)c1ccccc1S2"
24.5% (inactive)

---

- Tested on: A498 renal
- experiment: NCI-60 one-dose screen, 48 h (100 = growth as untreated, 0 = no growth, -100 = all killed)
- reported.conditions: 10 µM unless noted
About 83,000 compounds went through this panel and 20% of them were active in at least one assay; those are over-represented in the sample as a whole.
Entries and their growth values follow.
Only the number, expressed in %, is required.

Cc1cccc2sc(/N=C(\N)C(Cl)(Cl)Cl)nc12
92.7
CCN1CCN(S(=O)(=O)c2oc(-c3ccc(Cl)cc3)nc2C#N)CC1
93.2
CN1CCN(Cc2ccc(NC(=O)c3cncc(C#Cc4cnc5ccc(N6CCSCC6)nn45)c3)cc2C(F)(F)F)CC1
-81.9
Nc1c(C(=O)Nc2ccc(Cl)cc2)sc2nc(-c3cnccn3)cc(-c3cccs3)c12
82.3
O=C1c2c(c3c4cc(Br)ccc4[nH]c3c3ccc4ccccc4c23)C(=O)N1CCO
90.6

Field: growth (A498 renal). Entry: "OC1CCN(CCCOc2c3ccccc3nc3c2oc2ccccc23)CC1"
-78.8

Field: growth (A498 renal). Entry: "Cc1cc(C(=O)Nc2sc3c(c2C(N)=O)CCC(=O)C3)ccc1OCCN1CCCCC1"
120

Field: growth (A498 renal). Entry: "OC1CCN(CCCOc2c3ccc(Cl)cc3nc3c2oc2ccc(Cl)cc23)CC1"
-7.6

Field: growth (A498 renal). Entry: "Clc1ccc2c(OCCCN3CCOCC3)c3oc4ccccc4c3nc2c1"
13.6

Field: growth (A498 renal). Entry: "N#Cc1c(-c2ccc(Cl)cc2)nc(SCc2ccc(F)cc2)nc1N1CCNCC1"
65

---

- System: SNB-75 CNS
- experiment: NCI-60 one-dose screen, 48 h
- reported.conditions: 10 µM unless noted
This is part of a sample that, as a whole, favours compounds with a hit. Of some 83,000 tested, about 20% had one in any assay. Active and inactive are the calls of the source. Rule for the calls: active = growth percent below 10; inactive = the rest.
Respond only with the outcome that fits, drawn from active, inactive

Reference set (4 entries):
Cc1[nH]nc2ncc(C#Cc3cncc(C(=O)Nc4ccc(CN5CCN(C)CC5)c(C(F)(F)F)c4)c3)cc12
active
Fc1ccc(-c2cc3nc(C(Cl)Cl)nc(-c4ccccc4)n3n2)cc1
active
O=C(CN1C(=O)/C(=C/c2ccccc2)SC1=S)N1CCOCC1
inactive
NS(=O)(=O)c1cccc(Nc2nc(SCC(=O)c3ccc(Br)cc3)nc3ccccc23)c1
inactive

Please turn your attention to the following entry.
Hello, I am checking results. What call was entered for "O=C1c2c(c3c4cc(Br)ccc4[nH]c3c3ccc4ccccc4c23)C(=O)N1CCO" ?
inactive

Data credit: PubChem BioAssay (NCI)
